Source of measurements: patent EP2540163A1

protocol_description: logP by HPLC on reversed-phase column (C 18), EEC Directive 79/831 Annex V.A8, Method B (0.1% aqueous formic acid / acetonitrile, 40°C)
Assay type: physicochemical
measurement_parameters: c18 reversed-phase hplc; LogP method B: HPLC reversed-phase C 18, 40°C, 0.1% aqueous formic acid / acetonitrile
Description: Calibration was carried out using unbranched alkan-2-ones (having 3 to 16 carbon atoms) with known logP values (determination of the logP values by the retention times using linear interpolation between two successive alkanones).
parameter: chromatographic logP

# chromatographic logP lookup, item CCOc1nn(C)cc1C(=O)N(C1CC1)S(=O)(=O)c1ccc(Oc2ccc(OC)cc2)cc1Cl
3.5

Name the reported chromatographic logP value associated with the compound CCOc1nn(C)cc1C(=O)N(C1CC1)S(=O)(=O)c1ccc(Oc2cccc(N(C)C)c2)c(Cl)c1
4.1

Sample CCOc1nn(C)cc1C(=O)N(C1CC1)S(=O)(=O)c1ccc(Oc2ccc(Br)c(Cl)c2)cc1Cl — what was its chromatographic logP?
4.3

# input compound: Cn1nc(C(F)(F)F)c(C(=O)N(C2CC2)S(=O)(=O)c2c(Cl)cc(Cl)cc2Cl)c1F ; wanted: its chromatographic logP
3.7

Given the compound Cn1nc(C(F)F)c(C(=O)N(C2CC2)S(=O)(=O)c2ccccc2Cl)c1F , what is its reported chromatographic logP?
2.8

Requested field: chromatographic logP. Item: Cc1cc(C(=O)N(C2CC2)S(=O)(=O)c2cccc(Cl)c2Cl)c(C)o1
3.8

Tell me the measured chromatographic logP of Cn1nc(C(F)(F)F)c(C(=O)N(C2CC2)S(=O)(=O)c2c(Cl)cccc2Cl)c1F , please.
3.1

So what does the record say about chromatographic logP for Cn1nc(C(F)F)c(C(=O)N(C2CC2)S(=O)(=O)c2ccc(Cl)cc2Cl)c1F ?
3.4

----------
protocol_description: logP by HPLC on reversed-phase column (C 18), EEC Directive 79/831 Annex V.A8, Method B (0.1% aqueous formic acid / acetonitrile, 40°C)
Assay type: physicochemical
measurement_parameters: c18 reversed-phase hplc; LogP method B: HPLC reversed-phase C 18, 40°C, 0.1% aqueous formic acid / acetonitrile
Procedure: Calibration was carried out using unbranched alkan-2-ones (having 3 to 16 carbon atoms) with known logP values (determination of the logP values by the retention times using linear interpolation between two successive alkanones).
parameter: chromatographic logP
Field format: numeric only.

Which measured chromatographic logP value corresponds to Cc1nn(C)c(C#N)c1C(=O)N(C1CC1)S(=O)(=O)c1ccc(Cl)c(Cl)c1Cl [compound 228] ?
3.9

Entry CCCOc1nn(C)cc1C(=O)N(C1CC1)S(=O)(=O)c1ccc(Oc2cc(Cl)cc(Cl)c2)cc1Br [compound 305] has what chromatographic logP?
5.1

Could you share which chromatographic logP value was measured for CCc1nn(C)c(F)c1C(=O)N(C1CC1)S(=O)(=O)c1c(C)nn(C)c1Cl [compound 382] ?
2.3

Sample CCOc1nn(C)cc1C(=O)N(C1CC1)S(=O)(=O)c1ccc(Oc2cccc(N(C)C)c2)cc1Cl [compound 532] — what was its chromatographic logP?
3.8

I'd like to know its chromatographic logP. The compound in question is CC(F)c1nn(C)cc1C(=O)N(C1CC1)S(=O)(=O)c1cccc(Cl)c1Cl (centres unmarked) [compound 119]
2.8

Look up chromatographic logP for this compound: CCc1nn(C)c(F)c1C(=O)N(C1CC1)S(=O)(=O)c1c(Cl)cc(Cl)cc1Cl [compound 379]
3.6

Which measured chromatographic logP value corresponds to Cc1cnn(C)c1C(=O)N(C1CC1)S(=O)(=O)c1ccc(Cl)c(Cl)c1Cl [compound 659] ?
3.6

Bench note: what chromatographic logP did O=C(c1cccnc1Cl)N(C1CC1)S(=O)(=O)c1ccc(Cl)c(Cl)c1Cl [compound 647] show?
3.7
